Tested on: K-562 leukemia
test summary: NCI tumour cell line growth inhibition, 48 h
endpoint: TGI

Cc1c(NC2(C)C(=O)N(/N=C/c3ccccc3)N=C2c2ccccc2)n[nH]c1-c1ccccc1 (stereo not drawn)
> 100 µM
Cc1cc(=O)oc2cc(O)c(CN(C)CC(=O)O)cc12
> 100 µM
C=C(C=O)CCCC(C)[C@@H]1CCC23CC12CCC1[C@@]2(C)CCC(OC(C)=O)C(C)(C)C2CC(OC2OC(COC(C)=O)C(O)C(O)C2O)[C@]13C (stereo partly drawn)
6.78 µM
S=C(S)NCC1CCC(CNC(=S)S)CC1 (stereo not drawn)
> 100 µM
CC(=O)N1CCN(C23OC4(N5CCN(C(C)=O)CC5)C5C6CC(C7C6C4C72)C53)CC1 (stereo not drawn)
> 100 µM

Prompt: Can you share its TGI? I mean this molecule: CC(=O)OC1[C@H]2c3cc4c(cc3CN3CCC(=C[C@@H]1O)C23)OCO4 (stereo partly drawn)
Response: > 100 µM

Prompt: // query TGI value for entry CC(C)CNC(=O)Cn1c(-c2ccccc2)cc2ccccc21
Response: > 100 µM

Prompt: # query: TGI of entry C[N+](C)(C)c1ncnc2c1ncn2C1CCCCO1 (stereo not drawn)
Response: > 100 µM

Prompt: Which TGI value is on record for Nc1nc(CCC(=O)Nc2cccc(C(F)(F)F)c2)cc(-c2ccc3ccccc3c2)n1 ?
Response: > 100 µM

Prompt: Requested field: TGI. Item: COc1cc(S(=O)(=O)Nc2ccc(-c3csc(N4C(=O)CSC4c4ccccc4)n3)cc2)ccc1Cl (stereo not drawn)
Response: > 100 µM

----------
Tested on: SW-620 colon
test summary: NCI tumour cell line growth inhibition, 48 h
Let's look at some compounds and their measured GI50.

In the examples that follow, each entry is paired with its recorded GI50.
COC(=O)C1=C(C(=O)OC)SC(=C(Cl)C(=S)Sc2ccccc2N)S1
55.4 µM
CSc1ccc(/C=C2\C=C(CC(=O)NCc3ccc(C(=O)c4ccccc4)cc3)c3cc(F)ccc32)cc1
0.0431 µM
C[C-](O)O.O/C(=C\[C-](O)c1ccccc1)c1ccccc1.O/C(=C\[C-](O)c1ccccc1)c1ccccc1.[Nd+3] (stereo not given)
6.94 µM
CCOc1c(Cl)cc(CNC(C)C(O)c2ccccc2)cc1OC (stereo not given)
22.8 µM
Cc1cc(-c2nnc3n2CCCCC3)c(C)n1-c1ccc(Cl)c(Cl)c1
17.5 µM

Prompt: Name the reported GI50 value associated with the compound Cn1cc(CNCC2CCN(c3ncc(C(=O)NO)cn3)CC2)c2ccccc21
Response: 0.0147 µM

Prompt: Would you kindly share the measured GI50 for N.N.N.N.N.N.O=N[O-].[Br-].[Co+3].[Co+3].[OH3+].[OH3+] ?
Response: > 100 µM

Prompt: Consider the compound shown here: O=[N+]([O-])c1ccc2c(c1)[O][Sn][O]2 What is its recorded GI50?
Response: 114 µg/mL

Prompt: What value of GI50 has been reported for the following compound? O=[N+]([O-])c1ccc2c(c1)[O][Sn]([I])([I])[O]2
Response: > 100 µM

Prompt: Returns the measured GI50 for the input compound. Input: COc1ccc(C(=O)N2c3ccccc3Sc3ccccc32)c(C(F)(F)F)c1
Response: 0.425 µM

----------
System: OVCAR-3 ovarian
test summary: NCI tumour cell line growth inhibition, 48 h
Reported TGI values for a set of compounds
Give just the numeric value; µM need not be written.

COc1cc(C2SCC(=O)N2c2ccc(Oc3ccc(Cl)cc3)c(Cl)c2)cc(OC)c1OC (stereo not drawn)
31.1

Prompt: // query TGI value for entry CCC(c1cccc(O)c1)C(CC)c1cccc(O)c1 (stereo not drawn)
Response: 19

Prompt: I have this compound here, C/C(=N\NC(N)=S)c1nc2ccc(Cl)cc2[nH]1 , and I need its recorded TGI.
Response: 14.1

Prompt: For CSc1cc(N)ccc1N=Nc1ccc(S(N)(=O)=O)cc1 , what is its reported TGI?
Response: 68.5

----------
Test system: 786-0 renal
test summary: NCI tumour cell line growth inhibition, 48 h
Where a SMILES comes first, the peptide text is derived from it. The star is where a group is joined. Boc = CC(C)(C)OC(=O)*; OBn = c1ccc(CO*)cc1
Please use True whenever TGI is not below 10 µM, and False whenever it is.

Record excerpt, results attached:
NNC(=S)N1CCN(C(=S)NN)CC1
True
CC(=Nc1ccncc1)C(C)=Nc1ccncc1
True

Prompt: Please tell me: is the molecule CCN1CSC(=S)N(CC)C1 at or over 10 µM in terms of TGI?
Response: True

Prompt: // inclusive: TGI at least 10 µM? input: CCOC(=O)[C@H]1Nc2ccc(OC)cc2C2c3ccccc3CC21 (stereo partly specified)
Response: True

Prompt: Identify whether the reported TGI of the following molecule is 10 µM or greater: Cn1nc(S(N)(=O)=O)s/c1=N/C(N)=S
Response: True

Prompt: Has Cn1cc(CNCC2CCN(c3ncc(C(=O)NO)cn3)CC2)c2ccccc21 a recorded TGI greater than or equal to 10 µM?
Response: False

Prompt: For this molecule, is measured TGI 10 µM or higher? CC1CCN(CC(=O)N2c3ccccc3Sc3cc4ccccc4cc32)CC1
Response: True

Prompt: Kindly determine if TGI recorded for C=C(C=O)CCCC(C)[C@@H]1CCC23CC12CCC1[C@@]2(C)CCC(OC(C)=O)C(C)(C)C2CC(OC2OC(COC(C)=O)C(O)C(O)C2O)[C@]13C (stereo partly specified) is above or exactly 10 µM.
Response: True

Prompt: Hello, I need to know if CC(C)(C)OC(=O)NC(Cc1ccccc1)C(=O)NC(Cc1ccccc1)C(=O)NCC(=O)OCc1ccccc1 (stereo not drawn) (Boc-Phe-Phe-Gly-OBn; configuration not given here) has measured TGI not below 10 µM. Thanks!
Response: True

Prompt: Given the entry Cn1c2ccccc2c2c3c(c4c5ccccc5n(C)c4c21)C(=O)c1ccccc1C3=O , answer whether its TGI meets or surpasses 10 µM.
Response: True

----------
System: CCRF-CEM leukemia
test summary: NCI tumour cell line growth inhibition, 48 h
endpoint: TGI

Would you please look over these solved cases?
C[C@]12CC[C@@H]3c4ccc(OC(=O)c5ccccc5)cc4CC[C@H]3[C@@H]1CC[C@@H]2Oc1c2ccccc2nc2ccccc12
21.2 µM
COC(=O)CCC1=C(C)/C(=C/c2[nH]c(-c3ccc[nH]3)cc2OC)N=C1C
6.5 µM
COc1ccc(-c2cn[nH]c2-c2cc(OC)c3c(c2)OCCO3)cc1
> 73.9 µM
O=C(N[C@H]1c2ccsc2/C(=N/O)[C@H]1O)C(F)(F)F
> 100 µM

Prompt: Any idea what TGI was measured for O=C([CH-]C(=O)C(F)(F)F)c1ccccc1.O=C([CH-]C(=O)C(F)(F)F)c1ccccc1.O=C([CH-]C(=O)C(F)(F)F)c1ccccc1.O=C([CH-]C(=O)C(F)(F)F)c1ccccc1.[Eu+3].c1ccncc1 ?
Response: 32.7 µM

Prompt: Which TGI is listed for CCN(CC)C1CC(n2cc(C)c(=O)[nH]c2=O)OC1CO (stereo not drawn) ?
Response: > 100 µM

Prompt: // query TGI value for entry COc1cc(S(C)(=O)=O)ccc1Nc1nc2ccc(-c3ccc(NC(=O)[C@H](C)c4ccc(F)cc4)cc3)cn2n1
Response: > 100 µM

Prompt: Need TGI, item O=C1C2Cc3ccccc3CN2C(=O)N1CCN1CCCC1 (stereo not drawn)
Response: > 100 µM

----------
System: 786-0 renal
test summary: NCI tumour cell line growth inhibition, 48 h
endpoint: GI50

Prompt: State the recorded GI50 for this entry: O=C1CCCN1CC#CCN1CCCC1
Response: > 100 µM

Prompt: Requested field: GI50. Item: COC(=O)C1=C(C(=O)OC)SC(=C(Cl)C(=S)Sc2ccccc2N)S1
Response: 16.9 µM

Prompt: Give the measured GI50 of Cc1cc(-c2nnc3n2CCCCC3)c(C)n1-c1ccc(Cl)c(Cl)c1 .
Response: 22.9 µM

----------
Test system: NCI-H23 lung
test summary: NCI tumour cell line growth inhibition, 48 h
endpoint: GI50

Prompt: I am curious: what GI50 value has been reported for C[C-](O)O.O/C(=C\[C-](O)c1ccccc1)c1ccccc1.O/C(=C\[C-](O)c1ccccc1)c1ccccc1.[Nd+3] (stereo unspecified) ?
Response: 4690 nM

----------
Test system: HCT-15 colon
test summary: NCI tumour cell line growth inhibition, 48 h
endpoint: TGI

Study these solved cases before continuing.
CC1(C)C2CCC3(C2)CS(=O)(=O)N2OC231 (stereo not given)
30.1 µM
CN(Cc1cnc2nc(N)nc(N)c2n1)c1ccc(C(=O)NC(CCC(=O)NCC(P(=O)(O)O)P(=O)(O)O)C(=O)O)cc1 (stereo not given)
> 100 µM
COc1cc(S(=O)(=O)Nc2ccc(C3=NNC(c4ccccc4)C3)cc2)ccc1F (stereo not given)
> 100 µM
CCc1ccc2c(c1)CC1(C2)Cc2cc3c(cc2C1)C(=O)CC3 (stereo not given)
67.3 µM
O=c1[nH]nc(Cc2ccccc2)n1-n1cnnc1
> 100 µM
Cc1ccc(S(=O)(=O)N=Nc2c(O)[nH]c3c(Cl)cc(Cl)cc23)cc1
> 100 µM
S=c1nc(-c2cccnc2)[nH][nH]1
> 100 µM
N#CC(NNC(=O)c1ccccc1O)c1cccc(O)c1 (stereo not given)
> 100 µM
CSC1=NS(=O)(=O)c2cc(C(=O)NN(C)C(=O)c3cc4c(cc3Cl)SC(SC)=NS4(=O)=O)c(Cl)cc2S1
> 10 µM

Turning now to a further record.
Prompt: Given the entry Cc1ccc(N=Nc2c(C)c(C#N)c(=S)n(C3OC(CO)C(O)C(O)C3O)c2-c2ccccc2)cc1 (stereo not given) , what TGI was observed with HCT-15 colon?
Response: 63.7 µM
